Answer each item with its documented viability, T/C.
# Tested on: LG0703-F948-PDC complex spheroid viability
# assay name: Anticancer human tumor LG0703-F948-PDC patient-derived lung adenocarcinoma cell line growth inhibition [RAS]
# recorded conditions: second compound 0.03 µM; first compound 0.0316 µM; stronger effect = lower value
Hi! Could you send only the number? It should be in %, unit omitted.

Q: Look up viability, T/C for this molecule: CC(=O)OC12COC1CC(O)C1(C)C(=O)C(O)C3=C(C)C(OC(=O)C(O)C(NC(=O)OC(C)(C)C)c4ccccc4)CC(O)(C(OC(=O)c4ccccc4)C21)C3(C)C (configuration not stated) + CCn1c(-c2cc(N3CCN(C)CC3)cnc2C(C)OC)c2c3cc(ccc31)-c1csc(n1)CC(NC(=O)C1CC1C)C(=O)N1CCCC(N1)C(=O)OCC(C)(C)C2
Result: 6.77

Q: Look up viability, T/C for this molecule: CC(Nc1ccc2c(c1)OCCn1cc(N3C(=O)OCC3C(F)F)nc1-2)C(N)=O (configuration not stated) + CCn1c(-c2cc(N3CCN(C)CC3)cnc2C(C)OC)c2c3cc(ccc31)-c1csc(n1)CC(NC(=O)C1CC1C)C(=O)N1CCCC(N1)C(=O)OCC(C)(C)C2
Result: 10.8

====

# System: LG0703-F948-PDC complex spheroid viability
# assay name: Anticancer human tumor LG0703-F948-PDC cell line growth inhibition [RAS];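 further: spheroids exposed to agents for 7 days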;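 on viability, T/C: 100% = DMSO vehicle wells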
# recorded conditions: second compound 0.1 µM; first compound 10 µM; stronger effect = lower value
measured quantity: viability, T/C (%)
Hi! Could you send only the number? It should be in %, unit omitted.

Q: Look up viability, T/C for this molecule: CC(Nc1ccc2c(c1)OCCn1cc(N3C(=O)OCC3C(F)F)nc1-2)C(N)=O (stereo not given) + C=CC(=O)N1CCN(c2nc(OCC3CCCN3C)nc3c(F)c(-c4nc(N)cc(C)c4C(F)(F)F)c(Cl)cc23)C(C)C1
Result: 12.9

Q: Look up viability, T/C for this molecule: CC(C)NCC(C(=O)N1CCN(c2ncnc3c2C(C)CC3O)CC1)c1ccc(Cl)cc1 (stereo not given) + C=CC(=O)N1CCN(c2nc(OCC3CCCN3C)nc3c(F)c(-c4nc(N)cc(C)c4C(F)(F)F)c(Cl)cc23)C(C)C1
Result: 21.2

Q: Look up viability, T/C for this molecule: C[C@@H](NC(=O)c1ncnc(N)c1Cl)c1ncc(C(=O)Nc2cc(C(F)(F)F)c(Cl)cn2)s1 + C#Cc1c(F)ccc2cc(O)cc(-c3ncc4c(N5CC6CCC(C5)N6)nc(OCC56CCCN5CC(F)C6)nc4c3F)c12
Result: 98.3

Q: Look up viability, T/C for this molecule: CCC(CC)c1cc(NC2CCC(N)C2)n2nccc2n1 (stereo not given) + C#Cc1c(F)ccc2cc(O)cc(-c3ncc4c(N5CC6CCC(C5)N6)nc(OCC56CCCN5CC(F)C6)nc4c3F)c12
Result: 0.22

Q: Look up viability, T/C for this molecule: CC(=O)OC12COC1CC(O)C1(C)C(=O)C(O)C3=C(C)C(OC(=O)C(O)C(NC(=O)OC(C)(C)C)c4ccccc4)CC(O)(C(OC(=O)c4ccccc4)C21)C3(C)C (stereo not given) + C=CC(=O)N1CCN(c2nc(OCC3CCCN3C)nc3c(F)c(-c4nc(N)cc(C)c4C(F)(F)F)c(Cl)cc23)C(C)C1
Result: 24.7

====

# System: LG0703-F948-PDC complex spheroid viability
# assay name: Anticancer human tumor LG0703-F948-PDC cell line growth inhibition [RAS];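 further: spheroids exposed to agents for 7 days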
# recorded conditions: curve of first compound; second compound 0.00949 µM
Answer each item with its documented pIC50.
Scale for pIC50: -log10 of concentration given in mol/L; no unit attached.

Q: Look up pIC50 for this compound: O=C(c1ccc(F)c(F)c1Nc1ccc(I)cc1F)N1CC(O)([C@@H]2CCCCN2)C1 + CCn1c(-c2cccnc2C(C)OC)c2c3cc(ccc31)N1CCOC(CC(NC(=O)C(C(C)C)N(C)C(=O)C3(F)CCN(C(=O)C#CC(C)(C)N(C)C)CC3)C(=O)N3CCCC(N3)C(=O)OCC(C)(C)C2)C1
Result: 7.06

Q: Look up pIC50 for this compound: Nc1ccn(C2OC(CO)C(O)C2(F)F)c(=O)n1 (centres undefined) + CCn1c(-c2cccnc2C(C)OC)c2c3cc(ccc31)N1CCOC(CC(NC(=O)C(C(C)C)N(C)C(=O)C3(F)CCN(C(=O)C#CC(C)(C)N(C)C)CC3)C(=O)N3CCCC(N3)C(=O)OCC(C)(C)C2)C1
Result: 8.12

====

# Tested on: LG0703-F948-PDC complex spheroid viability
# assay name: Anticancer human tumor LG0703-F948-PDC cell line growth inhibition [RAS];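 further: spheroids exposed to agents for 7 days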;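 on viability, T/C: 100% = DMSO vehicle wells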
# recorded conditions: second compound 0.000949 µM; first compound 0.0316 µM; stronger effect = lower value
measured quantity: viability, T/C (%)
Hi! Could you send only the number? It should be in %, unit omitted.

Q: Look up viability, T/C for this molecule: O=C(c1ccc(F)c(F)c1Nc1ccc(I)cc1F)N1CC(O)([C@@H]2CCCCN2)C1 + CCn1c(-c2cc(N3CCN(C)CC3)cnc2C(C)OC)c2c3cc(ccc31)-c1csc(n1)CC(NC(=O)C1CC1C)C(=O)N1CCCC(N1)C(=O)OCC(C)(C)C2
Result: 28

Q: Look up viability, T/C for this molecule: CC1(O)CCCC1n1c(=O)c(C(F)F)cc2cnc(NC3CCN(S(C)(=O)=O)CC3)nc21 (centres undefined) + CCn1c(-c2cc(N3CCN(C)CC3)cnc2C(C)OC)c2c3cc(ccc31)-c1csc(n1)CC(NC(=O)C1CC1C)C(=O)N1CCCC(N1)C(=O)OCC(C)(C)C2
Result: 77.1

Q: Look up viability, T/C for this molecule: CC(Nc1ccc2c(c1)OCCn1cc(N3C(=O)OCC3C(F)F)nc1-2)C(N)=O (centres undefined) + CCn1c(-c2cc(N3CCN(C)CC3)cnc2C(C)OC)c2c3cc(ccc31)-c1csc(n1)CC(NC(=O)C1CC1C)C(=O)N1CCCC(N1)C(=O)OCC(C)(C)C2
Result: 66.8

Q: Look up viability, T/C for this molecule: Cc1nc(N2CCC3(CC2)COC(C)C3N)c(CO)nc1Sc1ccnc(N)c1Cl (centres undefined) + CCn1c(-c2cc(N3CCN(C)CC3)cnc2C(C)OC)c2c3cc(ccc31)-c1csc(n1)CC(NC(=O)C1CC1C)C(=O)N1CCCC(N1)C(=O)OCC(C)(C)C2
Result: 68

====

Answer each item with its documented viability, T/C.
# System: LG0703-F948-PDC complex spheroid viability
# assay name: Anticancer human tumor LG0703-F948-PDC cell line growth inhibition [RAS];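 further: spheroids exposed to agents for 7 days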;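 on viability, T/C: 100% = DMSO vehicle wells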
# recorded conditions: second compound 0.03 µM; first compound 0.316 µM; stronger effect = lower value
Hi! Could you send only the number? It should be in %, unit omitted.

Q: Look up viability, T/C for this compound: CC(C)NCC(C(=O)N1CCN(c2ncnc3c2C(C)CC3O)CC1)c1ccc(Cl)cc1 (configuration not stated) + CCn1c(-c2cccnc2C(C)OC)c2c3cc(ccc31)N1CCOC(CC(NC(=O)C(C(C)C)N(C)C(=O)C3(F)CCN(C(=O)C#CC(C)(C)N(C)C)CC3)C(=O)N3CCCC(N3)C(=O)OCC(C)(C)C2)C1
Result: 67.9

Q: Look up viability, T/C for this compound: O=C(c1ccc(F)c(F)c1Nc1ccc(I)cc1F)N1CC(O)([C@@H]2CCCCN2)C1 + CCn1c(-c2cccnc2C(C)OC)c2c3cc(ccc31)N1CCOC(CC(NC(=O)C(C(C)C)N(C)C(=O)C3(F)CCN(C(=O)C#CC(C)(C)N(C)C)CC3)C(=O)N3CCCC(N3)C(=O)OCC(C)(C)C2)C1
Result: 33.1

====

Answer each item with its documented viability, T/C.
# Test system: LG0703-F948-PDC complex spheroid viability
# assay name: Anticancer human tumor LG0703-F948-PDC cell line growth inhibition [RAS];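 further: spheroids exposed to agents for 7 days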;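 on viability, T/C: 100% = DMSO vehicle wells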
# recorded conditions: second compound 0.1 µM; first compound 0.01 µM; stronger effect = lower value
Hi! Could you send only the number? It should be in %, unit omitted.

Q: Enter reported viability, T/C observed with LG0703-F948-PDC complex spheroid viability for O=C(c1ccc(F)c(F)c1Nc1ccc(I)cc1F)N1CC(O)([C@@H]2CCCCN2)C1 + C=CC(=O)N1CCN(c2nc(OCC3CCCN3C)nc3c(F)c(-c4nc(N)cc(C)c4C(F)(F)F)c(Cl)cc23)C(C)C1
Result: 74.1

Q: Enter reported viability, T/C observed with LG0703-F948-PDC complex spheroid viability for C=CC(=O)Nc1cc(Nc2nccc(-c3cn(C)c4ccccc34)n2)c(OC)cc1N(C)CCN(C)C + C=CC(=O)N1CCN(c2nc(OCC3CCCN3C)nc3c(F)c(-c4nc(N)cc(C)c4C(F)(F)F)c(Cl)cc23)C(C)C1
Result: 43

Q: Enter reported viability, T/C observed with LG0703-F948-PDC complex spheroid viability for Nc1ccn(C2OC(CO)C(O)C2(F)F)c(=O)n1 (stereo not drawn) + C#Cc1c(F)ccc2cc(O)cc(-c3ncc4c(N5CC6CCC(C5)N6)nc(OCC56CCCN5CC(F)C6)nc4c3F)c12
Result: 45

Q: Enter reported viability, T/C observed with LG0703-F948-PDC complex spheroid viability for CC(C)n1nc(-c2ccc3oc(N)nc3c2)c2c(N)ncnc21 + C#Cc1c(F)ccc2cc(O)cc(-c3ncc4c(N5CC6CCC(C5)N6)nc(OCC56CCCN5CC(F)C6)nc4c3F)c12
Result: 34

Q: Enter reported viability, T/C observed with LG0703-F948-PDC complex spheroid viability for C=CC(=O)N1CCN(c2nc(OCC3CCCN3C)nc3c(F)c(-c4nc(N)cc(C)c4C(F)(F)F)c(Cl)cc23)C(C)C1 (stereo not drawn) + C#Cc1c(F)ccc2cc(O)cc(-c3ncc4c(N5CC6CCC(C5)N6)nc(OCC56CCCN5CC(F)C6)nc4c3F)c12
Result: 110

Q: Enter reported viability, T/C observed with LG0703-F948-PDC complex spheroid viability for C=CC(=O)Nc1cc(Nc2nccc(-c3cn(C)c4ccccc34)n2)c(OC)cc1N(C)CCN(C)C + C#Cc1c(F)ccc2cc(O)cc(-c3ncc4c(N5CC6CCC(C5)N6)nc(OCC56CCCN5CC(F)C6)nc4c3F)c12
Result: 47.4

Q: Enter reported viability, T/C observed with LG0703-F948-PDC complex spheroid viability for O=C(c1ccc(F)c(F)c1Nc1ccc(I)cc1F)N1CC(O)([C@@H]2CCCCN2)C1 + C#Cc1c(F)ccc2cc(O)cc(-c3ncc4c(N5CC6CCC(C5)N6)nc(OCC56CCCN5CC(F)C6)nc4c3F)c12
Result: 70.2

Q: Enter reported viability, T/C observed with LG0703-F948-PDC complex spheroid viability for CCN1CCN(Cc2ccc(Nc3ncc(F)c(-c4cc(F)c5nc(C)n(C(C)C)c5c4)n3)nc2)CC1 + C#Cc1c(F)ccc2cc(O)cc(-c3ncc4c(N5CC6CCC(C5)N6)nc(OCC56CCCN5CC(F)C6)nc4c3F)c12
Result: 90.3
